Tested on: MRSA ATCC BAA-44
method_description: Biofilm inhibition assay (crystal violet)
Type: cell-based, Staphylococcus aureus
measurement_context: Staphylococcus aureus, 5 μM; MRSA ATCC BAA 44
// label = Condition met if inhibition at 5 µM is not less than 60%, otherwise Condition not met

- CC(Cl)(Cl)C1NC(=O)/C(=C/c2ccc(C(F)(F)F)cc2)O1 (stereo not shown): Condition not met
- CC(C)(C)C1NC(=O)/C(=C/c2ccc(C(F)(F)F)cc2)O1 (stereo not shown): Condition not met
- CCCCC(Cl)(Cl)C1NC(=O)/C(=C/c2ccc(C(F)(F)F)cc2)O1 (stereo not shown): Condition met
- O=C1NC(C(Cl)(Cl)Cc2ccccc2)O/C1=C\c1ccc(C(F)(F)F)cc1 (stereo not shown): Condition met
- CCCCCCNC(=O)C(=O)Cc1ccc(C(F)(F)F)cc1: Condition not met
- CCCCC(Cl)(Cl)C1NC(=O)/C(=C/c2ccccc2)O1 (stereo not shown): Condition not met
- C#CCC(Cl)(Cl)C1NC(=O)/C(=C/c2ccc(C(F)(F)F)cc2)O1 (stereo not shown): Condition met
- CCCCCC1NC(=O)/C(=C/c2ccc(C(F)(F)F)cc2)O1 (stereo not shown): Condition not met
- CCCCCCCCC(Cl)(Cl)C1NC(=O)/C(=C/c2ccc(C(F)(F)F)cc2)O1 (stereo not shown): Condition met

Could you now consider this next compound?
Reported inhibition at 5 µM at or above 60%? CCCCC(Cl)(Cl)C1NC(=O)/C(=C/c2ccc(OC)cc2)O1 (stereo not shown) Condition not met
